// endpoint IC50 / system SARS-CoV-2 3CLpro (Severe acute respiratory syndrome coronavirus 2, UniProt P0DTD1)
Only the number, expressed in µM, is required.

1. CCC(CC)C(=O)Nc1cccc(C(=O)Nc2ccccc2C(=O)Nc2ccc(OC)cc2)c1 ... 6.99

Read the next record carefully.
Notebook: pull reported IC50 for SARS-CoV-2 3CLpro (Severe acute respiratory syndrome coronavirus 2, UniProt P0DTD1), entry CC[C@H](C)[C@H](NC(=O)c1ccc2nc(-n3cccc3)sc2c1)C(=O)NCc1cccnc1
8.5

###

target: UniProt P0DTD1; assay: biochemical
METRIC NAME: IC50 (µM)
Reply numerically in µM, unit not repeated.

Look over these answered cases.
1. COc1cc(-c2nc3cnccn3c2Nc2cccc(Cl)c2)ccc1O ... 9.08
2. CC[C@H](C)N(Cc1cccc(OC)c1)C[C@@H](O)COc1ccc(OC)cc1 ... 8.98
3. CCOc1ccc(NC(=O)C(CC(C)C)NC(=O)C2CCC(C)CC2)cc1 (stereo not shown) ... 6.12

For the next question, use this compound.
May I ask what IC50 has been recorded for COc1ccc(NC(=O)c2ccccc2NC(=O)c2ccc([N+](=O)[O-])c(C)c2)cc1 ?
4.47
